Data origin, for the record: patent US20240294635A1

Catalogue of IC50 readings, one per entry.
assay_system: T1, human CD47 protein, His Tag (ACRObiosystems, Cat. No. CD7-H5227) (human, UniProt Q08722 19-139)
T1 construct: bought reagent; also called CD47-His; hCD47-His Tag; not shown: His tag
T1 sequence (Q08722 19-139 limits assumed): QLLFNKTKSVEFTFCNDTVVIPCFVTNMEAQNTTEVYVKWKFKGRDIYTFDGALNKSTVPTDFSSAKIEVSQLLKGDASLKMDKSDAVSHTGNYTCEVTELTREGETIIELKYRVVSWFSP
assay_explanation: ELISA, CD47-His coated, competition with Human-SIRPα-mFc
quantity: IC50

>>> test_value("hz14A9-2.3 (antibody, human IgG4 S228P, kappa, V domains shown, humanized 14A9, full-length heavy and light chains) VH: QVQLVQSGAEVKKPGASVKVSCKVSGFNIEDDYIEWVRQAPGQGLEWMGRIDPANDKTKYAQKFQGRVTMTGDTSTNTVYMELSSLRSEDTAVYYCARPGLRRYYSMDYWGQGTLVTVSS VL: DIQMTQSPSSLSASVGDRVTITCKASENVVSYVSWYQQKPGKAPKLLIYGASNRYTGVPSRFIGSGSSTDFTLTISSLQPEDFATYYCGQSYSYPLTFGQGTKLEIKR")
"0.703 µg/mL"
>>> test_value("hz3F10-6.2 (antibody, human IgG4 S228P, kappa, V domains shown, humanized 3F10, full-length heavy and light chains) VH: QVQLVQSGAEVKKPGSSVKVSCKASGYTFSRYWIEWVRQAPGQGLEWMGEFIPGSDTTNYAQKFQGRVTITAEISTNTAYMELSSLRSEDTAVYYCARGGLRRMDYWGQGTLVTVSS VL: DIQMTQSPSSLSASVGDRVTITCRASSSVSSTYLHWYQQKPGKAPKLWIYTTSTLASGVPSRFSGSGSGTSYTLTISSLQPEDFATYYCQQFSESTWTFGQGTKLEIKR")
"1.84 µg/mL"
>>> test_value("hz14A9-2.4 (antibody, human IgG4 S228P, kappa, V domains shown, humanized 14A9, full-length heavy and light chains) VH: QVQLVQSGAEVKKPGASVKVSCKVSGFNIEDDYIEWVRQAPGQGLEWMGRIDPANDKTKYAQKFQGRVTMTGDTSTNTVYMELSSLRSEDTAVYYCTRPGLRRYYSMDYWGQGTLVTVSS VL: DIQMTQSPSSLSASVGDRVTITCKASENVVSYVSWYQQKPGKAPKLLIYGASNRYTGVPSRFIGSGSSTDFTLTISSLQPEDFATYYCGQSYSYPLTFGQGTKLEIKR")
"0.621 µg/mL"
